target: S1 subunit polypeptide of SARS-CoV-2 spike protein (isolate 2019-nCoV, WIV4) (SARS-CoV-2 (isolate 2019-nCoV, WIV4), UniProt P0DTC2 16-685); assay: phage ELISA on SARS-CoV-2 spike S1 (FIG. 1)
observed-property: binding result

1) anti-S1 (SARS-CoV-2) scFv clone #30 (scFv, also called phage clone #30) scFv: QSALTQPPSASGSPGQSVTISCTGTSSDVGGYDYVSWYQQHPGKAPKLMIYEVSKRPSGVSNRFSGSKSGNTASLTISGLQAEDEADYYCSSYTSSSTFPYVFGTGTKVTVLGSRGGGGSGGGGSGGGGSLEMAEVQLVESGGGLEQPGGSLRLSCAASGFTFSSYAMSWVRQAPGKGLEWVSAISASGNSTFYADSVKGRFTISRDNSKHTLDLQMNSLRADDTAVYYCARNSDVWGQGTLVTVSSTSGQAGQ : binds
2) anti-S1 (SARS-CoV-2) scFv clone #09 (scFv, also called phage clone #09) scFv: NFMLTQPHSVSESPGKTVSISCTGSSGSIASNYVQWYQQRPGSAPTTVIYEDKERPSGVPNRFSGSIDRSSNSASLTISGLKTEDEADYYCQSYDDGNVVFGGGTKLTVLGSRGGGGSGGGGSGGGGSLEMAEVQLVESGAEVKKPGASVKVSCKASGYTFTSYGISWVRQAPGQGLEWMGWISAYNGNTNYAQKFQDRVTLTTDTSTNTAYMLLRSLRSDDTAVYYCARTWYSYHYDIWGQGTLVTVSSTSGQAGQ : binds
3) anti-S1 (SARS-CoV-2) scFv clone #20 (scFv, also called phage clone #20) scFv: SYVLTQPPSASGTPGQRVTISCSGSSSNIGSNTVNWYQQLPGTAPKLLIYSNNQRPSGVPDRFSASKSGTSASLAISGFQSEDEADYYCAAWDDSLDGYVFGTGTKVTVLGSRGGGGSGGGGSGGGGSLEMAEVQLVQSGAEVKKPGESLKISCKGSGYSFPSYWIGWVRQMPGKGLEWMGIIYPGDSDTRYSPSFQGQVTISADKSISTAYLQWSSLKASDTAMYYCARGSYTYMGGSYDYWGQGTLVTVSSTSGQAGQ : binds

Hello, the source for this data is patent US20220119501A1, in case you need it.
